- Target: T1, Mcl-1, Q07820
- T1 chain: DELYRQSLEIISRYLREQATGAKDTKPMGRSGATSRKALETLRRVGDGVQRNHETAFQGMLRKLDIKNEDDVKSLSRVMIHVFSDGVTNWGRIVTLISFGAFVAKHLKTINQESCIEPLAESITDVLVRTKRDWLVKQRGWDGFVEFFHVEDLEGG
- Assay method text: peptide SPOT array, c-Myc-tagged receptor at 1 uM or 100 nM, anti-c-Myc-Cy3
Entries whose SPOT signal as a fraction of Bim BH3's signal on the same receptor and array is below 0.02 take Condition met; entries at or above 0.02 take Condition not met.

Use these answered entries as a reference point.
> print(dat)
                                binder     discrete.label
1    GLTWDPVGKYDASQADDRSLKVWRTL [HIRA]  Condition not met
2   KKCQDMIMTELTNAGDDVVVFYNDKA [ITPR3]      Condition met
3   VHKHSRLAEVLQLGLDILPQYKQEAP [KCNH1]  Condition not met
4  MPYMEAVIHEDQRFGDVIPMSLARRV [CYP2A6]  Condition not met
5   ERAISCMGQIICNLLDNLGSDLPNTL [CAND1]      Condition met

input: For MSILTIASAVLEFVLDGIYNNTMGHV [TAP1] , is the recorded SPOT signal as a fraction of Bim BH3's signal on the same receptor and array below the cut-off of 0.02?
output: Condition not met

input: Here is the next binder: ELQAPATVQSLGLLGDRLCVGAAGGF [CDC42BPG]
output: Condition met

input: Here is the next binder: AAPEGDWARLLEQMGALAVRGSRRER [ZBED3]
output: Condition not met
